system: UACC-257 melanoma; assay: NCI tumour cell line growth inhibition, 48 h
quantity_measured: TGI

>  <test_smiles>
COC(=O)c1cc2c(c(C(=O)OC)c1O)C(=O)C=CC2=O

>  <val>
> 48.7 µM

$$$$
>  <test_smiles>
N#CCCN(c1ccc(/C=C2\N=C(c3ccc(Cl)cc3)OC2=O)cc1)S(=O)(=O)c1ccccc1

>  <val>
> 100 µM

$$$$
>  <test_smiles>
CCCCCCCCCCCCCCCCOP(=O)(O)Oc1ccc(/C=C\c2ccc(OP(=O)(O)OCCCCCCCCCCCCCCCC)cc2)cc1

>  <val>
> 100 µM

$$$$
>  <test_smiles>
CCOC(=O)/C(O)=C(/C=NC(=S)c1ccncc1)C(=O)OCC

>  <val>
> 100 µM

$$$$
>  <test_smiles>
Cc1cccc2c(N)c3cccc(C(=O)NCCCNCCN)c3nc12

>  <val>
31.1 µM

$$$$
